Reported CC50 is given for each of the following compounds.
assay: Cytostatic activity against human MT4 cells; type: cell-based
measuredParameter: CC50 (µM)

moleculeSmiles: CCCCOC(=O)[C@H](C)NP(=O)(CC[C@H]1O[C@@H](n2cnc3c(N)ncnc32)[C@H](F)[C@@H]1O)N[C@@H](C)C(=O)OCCCC
measuredParameter: CC50
resultOperator: =
assayResult: 36
//
moleculeSmiles: CCCCOC(=O)[C@H](C)NP(=O)(/C=C/[C@H]1O[C@@H](n2ccc(N)nc2=O)[C@H](F)[C@@H]1O)N[C@@H](C)C(=O)OCCCC
measuredParameter: CC50
resultOperator: >
assayResult: 250
//
moleculeSmiles: CCCCOC(=O)[C@H](C)NP(=O)(/C=C/[C@H]1O[C@@H](n2ccc(=O)[nH]c2=O)[C@H](F)[C@@H]1O)N[C@@H](C)C(=O)OCCCC
measuredParameter: CC50
resultOperator: =
assayResult: 92
//
moleculeSmiles: CCCCOC(=O)[C@H](C)NP(=O)(/C=C/[C@H]1O[C@@H](n2cnc3c(N)ncnc32)[C@H](F)[C@@H]1O)N[C@@H](C)C(=O)OCCCC
measuredParameter: CC50
resultOperator: =
assayResult: 18

----------
Let's look at some compounds and their measured CC50.
experiment: Cytotoxicity against human HuH7 cells; type: cell-based, Huh-7

moleculeSmiles: Nc1ccn([C@@H]2O[C@H](/C=C/P(=O)(O)O)[C@@H](O)[C@H]2F)c(=O)n1
CC50: > 250 µM
--
moleculeSmiles: O=c1ccn([C@@H]2O[C@H](COP(=O)(O)O)[C@@H](O)[C@H]2F)c(=O)[nH]1
CC50: > 250 µM
--
moleculeSmiles: O=c1ccn([C@@H]2O[C@H](/C=C/P(=O)(O)O)[C@@H](O)[C@H]2F)c(=O)[nH]1
CC50: > 250 µM
--
moleculeSmiles: Nc1ccn([C@@H]2O[C@H](COP(=O)(O)O)[C@@H](O)[C@H]2F)c(=O)n1
CC50: > 250 µM
--
moleculeSmiles: Nc1ncnc2c1ncn2[C@@H]1O[C@H](CCP(=O)(O)O)[C@@H](O)[C@H]1F
CC50: > 500 µM
--
moleculeSmiles: Nc1ncnc2c1ncn2[C@@H]1O[C@H](COP(=O)(O)O)[C@@H](O)[C@H]1F
CC50: > 250 µM
--
moleculeSmiles: CCCCOC(=O)[C@H](C)NP(=O)(/C=C/[C@H]1O[C@@H](n2ccc(=O)[nH]c2=O)[C@H](F)[C@@H]1O)N[C@@H](C)C(=O)OCCCC
CC50: > 250 µM
--
moleculeSmiles: CCCCOC(=O)[C@H](C)NP(=O)(/C=C/[C@H]1O[C@@H](n2ccc(N)nc2=O)[C@H](F)[C@@H]1O)N[C@@H](C)C(=O)OCCCC
CC50: > 250 µM
--
moleculeSmiles: CCCCOC(=O)[C@H](C)NP(=O)(/C=C/[C@H]1O[C@@H](n2cnc3c(N)ncnc32)[C@H](F)[C@@H]1O)N[C@@H](C)C(=O)OCCCC
CC50: 113 µM
--
moleculeSmiles: Nc1ncnc2c1ncn2[C@@H]1O[C@H](/C=C/P(=O)(O)O)[C@@H](O)[C@H]1F
CC50: > 250 µM
--
moleculeSmiles: CCCCOC(=O)[C@H](C)NP(=O)(CC[C@H]1O[C@@H](n2cnc3c(N)ncnc32)[C@H](F)[C@@H]1O)N[C@@H](C)C(=O)OCCCC
CC50: 24 µM
